Cited source: ChEMBL document CHEMBL2177100

Target: Tyrosine-protein kinase JAK3 (Homo sapiens, UniProt P52333)
Sequence (P52333 whole entry): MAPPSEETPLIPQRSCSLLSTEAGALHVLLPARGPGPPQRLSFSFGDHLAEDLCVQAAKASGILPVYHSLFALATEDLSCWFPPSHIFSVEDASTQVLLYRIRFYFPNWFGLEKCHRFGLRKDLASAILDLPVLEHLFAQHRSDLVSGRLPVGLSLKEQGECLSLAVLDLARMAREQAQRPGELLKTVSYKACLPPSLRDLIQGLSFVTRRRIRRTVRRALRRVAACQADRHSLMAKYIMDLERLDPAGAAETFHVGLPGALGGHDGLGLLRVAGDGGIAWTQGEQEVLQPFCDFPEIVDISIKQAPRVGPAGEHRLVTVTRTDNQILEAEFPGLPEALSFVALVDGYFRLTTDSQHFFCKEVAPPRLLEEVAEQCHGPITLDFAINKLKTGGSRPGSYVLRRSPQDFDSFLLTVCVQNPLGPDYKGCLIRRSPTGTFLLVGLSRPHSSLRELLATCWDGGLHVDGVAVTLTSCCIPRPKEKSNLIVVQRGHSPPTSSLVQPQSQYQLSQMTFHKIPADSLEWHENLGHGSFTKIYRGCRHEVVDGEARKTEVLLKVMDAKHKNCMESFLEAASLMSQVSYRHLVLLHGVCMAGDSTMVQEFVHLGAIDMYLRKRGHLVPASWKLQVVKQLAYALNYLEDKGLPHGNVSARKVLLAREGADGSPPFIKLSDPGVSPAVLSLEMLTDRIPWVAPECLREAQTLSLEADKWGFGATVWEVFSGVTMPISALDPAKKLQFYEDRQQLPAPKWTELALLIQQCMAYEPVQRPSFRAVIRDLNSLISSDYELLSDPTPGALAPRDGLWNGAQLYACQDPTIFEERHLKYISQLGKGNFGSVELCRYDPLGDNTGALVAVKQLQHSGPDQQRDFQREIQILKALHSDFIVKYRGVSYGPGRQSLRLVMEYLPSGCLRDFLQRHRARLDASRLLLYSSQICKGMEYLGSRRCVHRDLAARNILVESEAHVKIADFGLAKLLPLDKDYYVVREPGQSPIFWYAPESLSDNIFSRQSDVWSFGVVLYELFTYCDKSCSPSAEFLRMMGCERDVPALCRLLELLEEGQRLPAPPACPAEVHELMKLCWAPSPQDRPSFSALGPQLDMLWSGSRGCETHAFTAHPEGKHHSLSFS
Assay: Inhibition of human recombinant JAK3 by radiometric kinase assay
Result Type: pIC50
Conceptually, pIC50 converts a concentration in mol/L into minus its log10.

Request: // returns reported pIC50 for input CN1CCN(c2ccc(Nc3ncc4nc(Nc5ccccc5)n(C5CCCC5)c4n3)cc2)CC1
Response: 5.59

----------
Target: Protein kinase C theta type (Homo sapiens)
Sequence (Q04759 whole entry): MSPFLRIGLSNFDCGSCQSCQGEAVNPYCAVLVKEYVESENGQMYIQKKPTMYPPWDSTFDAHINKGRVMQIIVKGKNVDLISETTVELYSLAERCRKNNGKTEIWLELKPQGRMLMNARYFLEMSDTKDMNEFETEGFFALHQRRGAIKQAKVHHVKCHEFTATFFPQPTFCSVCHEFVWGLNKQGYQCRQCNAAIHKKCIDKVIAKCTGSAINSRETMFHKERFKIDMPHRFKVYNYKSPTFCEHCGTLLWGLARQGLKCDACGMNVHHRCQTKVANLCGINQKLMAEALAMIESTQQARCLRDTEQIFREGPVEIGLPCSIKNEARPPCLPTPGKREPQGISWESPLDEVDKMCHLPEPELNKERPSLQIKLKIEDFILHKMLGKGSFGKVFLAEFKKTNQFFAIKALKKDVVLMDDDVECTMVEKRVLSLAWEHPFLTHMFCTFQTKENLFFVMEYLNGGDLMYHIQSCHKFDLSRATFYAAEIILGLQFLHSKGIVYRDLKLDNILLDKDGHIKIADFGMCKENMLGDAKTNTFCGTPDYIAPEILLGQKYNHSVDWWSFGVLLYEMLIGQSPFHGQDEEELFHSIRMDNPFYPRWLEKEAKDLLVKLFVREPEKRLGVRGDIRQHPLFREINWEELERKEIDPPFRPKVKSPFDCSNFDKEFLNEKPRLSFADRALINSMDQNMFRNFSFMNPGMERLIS
Assay: Inhibition of human recombinant PKCtheta by radiometric kinase assay
Result Type: pIC50
To interpret pIC50, take it as minus log10 of a concentration measured in moles per litre.

Request: Can you share its pIC50? I mean this molecule: CN1CCN(c2ccc(Nc3ncc4nc(Nc5ccccc5)n(C5CCCC5)c4n3)cc2)CC1
Response: 5.44

----------
Biological target: UniProt:P35968
Sequence (P35968 whole entry): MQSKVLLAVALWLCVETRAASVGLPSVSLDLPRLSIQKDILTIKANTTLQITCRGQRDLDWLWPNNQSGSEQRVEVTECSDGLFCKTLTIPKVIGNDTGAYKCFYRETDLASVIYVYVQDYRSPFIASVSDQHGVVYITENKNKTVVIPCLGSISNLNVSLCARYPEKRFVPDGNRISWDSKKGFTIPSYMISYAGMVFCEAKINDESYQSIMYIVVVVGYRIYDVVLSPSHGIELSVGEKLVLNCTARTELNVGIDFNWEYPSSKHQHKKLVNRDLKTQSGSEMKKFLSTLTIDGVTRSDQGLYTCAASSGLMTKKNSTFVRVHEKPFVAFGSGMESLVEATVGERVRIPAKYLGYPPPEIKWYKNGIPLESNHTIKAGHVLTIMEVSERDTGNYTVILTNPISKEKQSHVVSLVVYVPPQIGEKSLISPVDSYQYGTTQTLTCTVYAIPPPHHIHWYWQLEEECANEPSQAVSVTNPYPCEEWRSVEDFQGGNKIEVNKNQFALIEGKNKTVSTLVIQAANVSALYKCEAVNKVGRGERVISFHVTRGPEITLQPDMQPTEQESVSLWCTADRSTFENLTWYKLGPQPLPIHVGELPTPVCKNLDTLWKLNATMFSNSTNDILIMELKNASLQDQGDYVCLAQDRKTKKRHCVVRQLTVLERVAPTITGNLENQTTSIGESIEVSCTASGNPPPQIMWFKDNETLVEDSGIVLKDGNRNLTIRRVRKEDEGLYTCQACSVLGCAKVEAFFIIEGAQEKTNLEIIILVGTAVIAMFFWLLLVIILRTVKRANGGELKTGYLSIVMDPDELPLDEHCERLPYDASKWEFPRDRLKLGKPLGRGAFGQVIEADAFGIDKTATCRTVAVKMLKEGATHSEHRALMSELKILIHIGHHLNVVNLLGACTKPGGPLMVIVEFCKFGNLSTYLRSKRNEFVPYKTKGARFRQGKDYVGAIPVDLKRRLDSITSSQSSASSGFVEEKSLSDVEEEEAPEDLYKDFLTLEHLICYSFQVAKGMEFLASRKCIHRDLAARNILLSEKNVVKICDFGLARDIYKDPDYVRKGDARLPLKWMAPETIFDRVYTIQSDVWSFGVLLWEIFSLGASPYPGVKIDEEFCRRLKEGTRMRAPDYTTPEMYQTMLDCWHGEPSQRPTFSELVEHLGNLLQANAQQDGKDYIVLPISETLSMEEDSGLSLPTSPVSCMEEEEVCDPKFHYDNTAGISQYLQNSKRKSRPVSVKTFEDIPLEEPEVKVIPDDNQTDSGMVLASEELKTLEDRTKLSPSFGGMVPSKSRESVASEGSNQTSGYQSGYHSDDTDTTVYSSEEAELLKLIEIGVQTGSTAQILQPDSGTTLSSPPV
Test: Inhibition of human recombinant VEGFR2 by radiometric kinase assay
Result Type: IC50 (nM)
The reply should be a number in nM, with the unit left off.

Request: Would you mind telling me what IC50 value was observed for CN1CCN(c2ccc(Nc3ncc4nc(Nc5ccccc5)n(C5CCCC5)c4n3)cc2)CC1 ?
Response: 20

----------
Molecular target: ALK tyrosine kinase receptor (Homo sapiens, UniProt Q9UM73)
Sequence (Q9UM73 whole entry): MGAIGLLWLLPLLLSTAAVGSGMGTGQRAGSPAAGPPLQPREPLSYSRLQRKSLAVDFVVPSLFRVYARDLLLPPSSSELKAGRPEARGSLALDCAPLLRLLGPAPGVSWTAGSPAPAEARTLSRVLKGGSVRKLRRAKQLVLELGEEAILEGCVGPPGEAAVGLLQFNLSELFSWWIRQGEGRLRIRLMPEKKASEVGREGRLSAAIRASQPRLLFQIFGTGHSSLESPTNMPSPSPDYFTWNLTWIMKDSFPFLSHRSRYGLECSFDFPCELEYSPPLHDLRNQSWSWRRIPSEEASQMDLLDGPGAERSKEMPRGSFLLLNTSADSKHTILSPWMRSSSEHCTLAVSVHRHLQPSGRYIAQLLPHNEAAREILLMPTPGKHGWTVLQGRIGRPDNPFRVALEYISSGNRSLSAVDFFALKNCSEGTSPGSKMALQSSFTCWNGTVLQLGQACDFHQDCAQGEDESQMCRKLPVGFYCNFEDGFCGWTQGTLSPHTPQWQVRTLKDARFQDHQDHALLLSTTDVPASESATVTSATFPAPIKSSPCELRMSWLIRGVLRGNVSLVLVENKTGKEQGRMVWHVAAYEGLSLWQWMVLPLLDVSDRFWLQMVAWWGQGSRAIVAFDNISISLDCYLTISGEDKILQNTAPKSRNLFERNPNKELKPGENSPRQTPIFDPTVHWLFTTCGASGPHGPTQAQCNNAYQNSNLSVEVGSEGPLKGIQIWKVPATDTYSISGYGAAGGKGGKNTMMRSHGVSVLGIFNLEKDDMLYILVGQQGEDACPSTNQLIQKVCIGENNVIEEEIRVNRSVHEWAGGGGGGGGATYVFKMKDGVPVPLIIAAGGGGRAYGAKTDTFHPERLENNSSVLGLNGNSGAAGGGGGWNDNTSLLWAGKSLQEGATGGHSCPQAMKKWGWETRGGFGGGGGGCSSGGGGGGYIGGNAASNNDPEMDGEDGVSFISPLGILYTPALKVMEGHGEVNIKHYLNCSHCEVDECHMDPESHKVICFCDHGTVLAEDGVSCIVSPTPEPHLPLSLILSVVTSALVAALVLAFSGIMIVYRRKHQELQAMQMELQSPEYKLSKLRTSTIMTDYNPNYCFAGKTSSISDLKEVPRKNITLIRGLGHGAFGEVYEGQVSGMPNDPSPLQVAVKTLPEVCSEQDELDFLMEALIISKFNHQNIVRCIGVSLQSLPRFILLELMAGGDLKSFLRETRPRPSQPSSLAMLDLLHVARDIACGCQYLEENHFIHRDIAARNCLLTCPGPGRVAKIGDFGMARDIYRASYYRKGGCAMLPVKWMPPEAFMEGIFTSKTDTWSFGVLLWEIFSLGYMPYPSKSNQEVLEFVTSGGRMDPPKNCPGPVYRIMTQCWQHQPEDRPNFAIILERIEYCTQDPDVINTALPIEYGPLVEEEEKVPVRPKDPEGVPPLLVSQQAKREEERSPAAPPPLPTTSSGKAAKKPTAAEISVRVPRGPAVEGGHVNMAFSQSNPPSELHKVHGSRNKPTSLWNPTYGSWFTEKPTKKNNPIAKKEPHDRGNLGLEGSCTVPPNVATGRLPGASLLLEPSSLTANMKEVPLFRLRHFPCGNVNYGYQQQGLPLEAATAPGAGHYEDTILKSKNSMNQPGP
Experiment: Inhibition of human recombinant ALK by radiometric kinase assay
Result Type: pIC50
To interpret pIC50, take it as minus log10 of a concentration measured in moles per litre.

Request: Using the record for CN1CCN(c2ccc(Nc3ncc4nc(Nc5ccccc5)n(C5CCCC5)c4n3)cc2)CC1 , report its pIC50.
Response: 5.64
